What 8OG:A repair function score was measured for each of the following?
B1: library; numbered along this chain (parent)
chain: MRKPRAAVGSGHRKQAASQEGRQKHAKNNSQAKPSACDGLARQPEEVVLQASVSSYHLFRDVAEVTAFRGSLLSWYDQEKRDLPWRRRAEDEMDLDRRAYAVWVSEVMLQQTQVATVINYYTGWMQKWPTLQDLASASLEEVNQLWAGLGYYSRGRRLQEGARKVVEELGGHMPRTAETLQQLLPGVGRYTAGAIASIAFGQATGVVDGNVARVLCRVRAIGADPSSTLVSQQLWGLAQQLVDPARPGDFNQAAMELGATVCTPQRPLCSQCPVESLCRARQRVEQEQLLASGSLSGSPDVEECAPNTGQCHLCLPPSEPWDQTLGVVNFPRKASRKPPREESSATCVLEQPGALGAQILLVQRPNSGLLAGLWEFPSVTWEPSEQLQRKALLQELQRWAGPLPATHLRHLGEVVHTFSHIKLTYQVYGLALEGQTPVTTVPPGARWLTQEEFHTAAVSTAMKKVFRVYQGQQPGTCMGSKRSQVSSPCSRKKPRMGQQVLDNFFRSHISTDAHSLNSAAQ

variants of: B1; experiment: 8OG:A repair function score (normalized; synonymous = 0, nonsense = -1) (normalized log-likelihood score); higher = more repair activity (WT-like); settings: with 8OG:A DNA repair reporter (GFP) in HEK-293 MUTYH KO cells;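 also: cells sorted at 72 h after reporter transfection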
Answers are plain numbers.

Reference set, count: 8
- Sequence change: "G70M"
  Result value: -0.00743
- Sequence change: "E275P"
  Result value: -0.152
- Sequence change: "E287W"
  Result value: -0.0668
- Sequence change: "Y190R"
  Result value: -1.06
- Sequence change: "Q397L"
  Result value: -0.101
- Sequence change: "R506T"
  Result value: 0.0259
- Sequence change: "P306W"
  Result value: -0.009
- Sequence change: "S55I"
  Result value: -0.0166

Please look at the items below and tell me 8OG:A repair function score for each one, in order.
1. L315V
2. V415M

1. -0.0921
2. 0.0821
